Data origin, for the record: PubChem BioAssay

Test: inhibition of 3D7 malaria parasite growth – strain 3D7 (AID 2306);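 further: 0% = DMSO wells and 100% = chloroquine plus artemisinin control wells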
Details: P. falciparum 3D7 erythrocytic growth, LDH absorbance, 72 h; at 2 µM; active compounds read high
READOUT_TYPE: growth inhibition (%)

- CCN(CC)CCNc1c2ccc(Cl)cc2nc2ccc(OC)nc12: 100
- O[C@@H](c1ccc2ccccc2c1)[C@@H]1CN(CCc2ccccc2)CC[C@@]1(O)c1ccccc1: 99
- CCc1ccc(C2CCN(CCCCNC(=O)c3ccc(NC(=O)c4ccc(Cl)cc4)cc3)CC2)c(OC)c1: 101
- Nc1nc(N)c2c3c(cnc2n1)CCCC3: 95
- CN1CCN(Cc2ccc(-c3ccc4c(Nc5ccc(Oc6ccccn6)cc5)ccnc4c3)o2)CC1: 101
- O=C(/C=C/c1ccc(Cl)c(Cl)c1)NCCCCCN1CCCN(C(=O)Nc2cccc(Cl)c2)CC1: 102
- Cc1nn(C2CCS(=O)(=O)C2)c(C)c1C1Nc2ccccc2C(=O)N1Cc1ccc2c(c1)OCO2 (centres undefined): 98
- Fc1ccc2nc(-c3cccc(-c4ccc(CN5CCC(CCN6CCCCC6)CC5)cc4)c3)[nH]c2c1: 101
- CC(=O)Nc1ccc(CN2CCC(NC(=O)c3cc(-c4ccc(N(C)C)cc4)cs3)C2)cc1 (centres undefined): 83

###

Molecular target: L-lactate dehydrogenase (Plasmodium falciparum (isolate CDC / Honduras)) (UniProt Q27743)
Sequence (Q27743 whole entry, looked up): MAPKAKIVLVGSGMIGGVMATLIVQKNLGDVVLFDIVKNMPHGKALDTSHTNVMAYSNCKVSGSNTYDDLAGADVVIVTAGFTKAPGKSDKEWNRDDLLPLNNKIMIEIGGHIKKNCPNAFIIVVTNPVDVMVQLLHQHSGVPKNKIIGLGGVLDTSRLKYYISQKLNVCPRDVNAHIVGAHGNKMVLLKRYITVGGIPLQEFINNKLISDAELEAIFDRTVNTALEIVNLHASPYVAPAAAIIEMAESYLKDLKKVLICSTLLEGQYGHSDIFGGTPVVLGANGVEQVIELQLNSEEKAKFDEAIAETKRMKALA
Test: PfLDH activity inhibition – cell lysate, 3D7 strain, counter-screen for P. falciparum growth inhibition project (AID 2304);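 further: 0% = vehicle and 100% = reference inhibitor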
Details: P. falciparum 3D7 crude extract, LDH APAD/NBT absorbance; at 2 µM; active compounds read high
READOUT_TYPE: inhibition (%)

- CN1CCCN(Cc2ccc(-c3cccc(NC(=O)c4ccc(C#N)cc4)c3)cc2)CC1: -5
- CN1CCc2cc(O)c(NS(=O)(=O)c3ccc(-c4ccc(Cl)cc4)cc3)cc2CC1: 3
- O=C(/C=C/c1ccc(-c2ccccc2)cc1)NCCCCCN1CCC(c2c[nH]c3ccccc23)CC1: 6
- CCN(CC)CCN(Cc1ccc(-c2ccc(C(F)(F)F)cc2)cc1)C(=O)Cn1c(CCc2cccc(C#N)c2)nc(=O)c2ccccc21: -1
- CC(C)NCc1ccc(-c2cccc(NC(=O)c3ccc(C#N)cc3)c2)cc1: 4
- COc1cc2nc(NCCc3ccccc3)nc(N(C)Cc3ccccc3)c2cc1OC: -6
- O=C(CSc1nccn1C1CCCCC1)Nc1cc(C(F)(F)F)ccc1Cl: -1
- Oc1ccc(Cl)cc1CN1CCC2(CCCN(CC3CCC3)C2)C1 (stereo not given): -2
- O=C(CSc1n[nH]c(=O)n1Cc1ccccc1)Nc1ccccc1-c1ccccc1: 3
- c1ccc2[nH]c(-c3ccc(-c4ccc(CN5CCCCC5)cc4)cc3)nc2c1: 2

###

growth inhibition overview
Assay: inhibition of 3D7 malaria parasite growth – strain 3D7 (AID 2306);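 further: 0% = DMSO wells and 100% = chloroquine plus artemisinin control wells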
Details: P. falciparum 3D7 erythrocytic growth, LDH absorbance, 72 h; at 2 µM; active compounds read high
Activity calls are given as the source filed them. No rule for the calls is given here.
READOUT_TYPE: growth inhibition

- Fc1ccccc1-c1cc(Nc2ccncc2)nc(-c2cccnc2)n1: 103% (active)
- CC(=O)Nc1ccc(C(=O)Nc2cccc(-c3cccc(-c4nc5ccccc5[nH]4)c3)c2)cn1: 101% (active)
- COc1ccc2nccc([C@@H](O)CN3CCC(NCc4nc5cc(F)c(F)cc5[nH]4)CC3)c2c1: 96% (active)
- O=C(CCCCCNC(=O)c1ccc(O)c(-c2ccc(Cl)c(Cl)c2)c1)NC1CCCc2ccccc21 (centres undefined): 97% (active)
- C(=C(c1cccs1)c1cccs1)c1ccc(CNC2CCN(Cc3ccccc3)CC2)cc1: 98% (active)
- CCCOc1ccc2ccccc2c1CNCCCCCCNCc1c(OCCC)ccc2ccccc12: 94% (active)
- S=C(NCCCCCN1CCC(c2c[nH]c3ccccc23)CC1)Nc1cccc(I)c1: 99% (active)
- OCCCCCCNc1nc(NCc2ccccc2-c2ccc(C(F)(F)F)cc2)nc(N2CCNCC2)n1: 89% (active)
- CCOC(=O)c1c(CCc2ccc(C(F)(F)F)cc2)nc2c(c1-c1ccc(C(=O)N[C@@H](C)c3ccncc3)cc1)C(=O)N1CCC[C@@H]21: 85% (active)
